Test system: intestinal alkaline phosphatase [Mus musculus]
assay: mouse intestinal phosphatase enzyme activation – biochemical, luminescence, single concentration, confirmation (AID 434970)
run-parameters: purified mouse IAP, CDP-Star luminescence, 30 min, at 10 µM; stronger effect = lower value
The campaign covered roughly 11,000 compounds. About 310 (2.8%) were called active. For the sample, actives were picked, then their nearest neighbours and some compounds at random.
property-name: activity change, negative = activation (%)
# number only, unit % dropped from output

[[record]]
compound = "CCc1ccc(NC(=O)NC(C)c2ccc3c(c2)OCO3)cc1 (centres undefined)"
observed = -166

[[record]]
compound = "CCOc1ccc(NC(=O)Nc2cc(C)ccc2OC)cc1"
observed = -15.9

[[record]]
compound = "CCCCCCN(C(=O)CCCN1C(=O)NC(c2ccc(-c3ccccc3)cc2)C(C(=O)OCc2ccccc2)=C1C)C(C)C(=O)NCCCC (centres undefined)"
observed = -41.5


Task item: Return reported activity change, negative = activation; argument: COc1ccc(-c2noc(CCC(=O)N3CCN(c4ccc(F)cc4)CC3)n2)cc1
Reply: -10.3

Task item: Return reported activity change, negative = activation; argument: CC[C@]12c3[nH]c4ccc(OC)cc4c3CCN1C(=O)C(CC(=O)NCCC1=CCCCC1)C[C@@H]2C(=O)N1CCN(C(=O)C2CC2)CC1 (some centres undefined)
Reply: -1.4

Task item: Return reported activity change, negative = activation; argument: CC(C)N(C(=O)[C@H]1C[C@H](CC(=O)NCCC2=CCCCC2)C(=O)N2CCc3c([nH]c4ccc(Cl)cc34)[C@]12C)C(C)C
Reply: -23.5

Task item: Return reported activity change, negative = activation; argument: CCOC(=O)c1c(-c2ccccc2)oc2ccc(O)c(CN(C)C)c12
Reply: 9.15

Task item: Return reported activity change, negative = activation; argument: Cc1cc(C)cc(NC2=NC3(CCCCC3)N=C(N)N2)c1
Reply: -222

* * *

System: intestinal alkaline phosphatase [Mus musculus]
assay: mouse intestinal phosphatase enzyme activation – biochemical, luminescence, single concentration, confirmation (AID 434970)
run-parameters: purified mouse IAP, CDP-Star luminescence, 30 min, at 10 µM; measured here: IAP activation factor, stronger effect = higher value
In all, about 11,000 compounds went through this assay and about 310 (2.8%) were called active. The full list was thinned out, with actives kept by preference.
Recorded activation factor determines the label; the label ranges are low: < 1; mid: ≥ 1 and < 2; high: ≥ 2

Please review the following examples before continuing.
[[record]]
molecule = "CC(OC(=O)c1cccs1)C(=O)NCC1CCCO1 (stereo not drawn)"
class_label = "mid"

[[record]]
molecule = "O=C(Nc1ccc(F)c(Cl)c1)Nc1csc2ccccc12"
class_label = "high"

[[record]]
molecule = "CCCCNC(=O)C(C1CCCCC1)N(CCN(C)C)C(=O)CCCN1C(=O)NC(c2ccc(-c3ccccc3)cc2)C(C(=O)OCc2ccccc2)=C1C (stereo not drawn)"
class_label = "high"

[[record]]
molecule = "CC(C)CNC(=O)c1ccccc1NC(=O)Nc1ccccc1"
class_label = "low"

[[record]]
molecule = "C#CCOCCOCCOCCNc1nc(N2CCN(C(=O)CCCCCCCCCCNC(=O)Cn3cc(CCCCCN)nn3)CC2)nc(N2CCN(C(=O)CCCCCCCCCCNC(=O)[C@H](CO)n3cc(CCCSC)nn3)CC2)n1"
class_label = "high"


Task item: Form field 'band' for C#CCOCCOCCOCCNc1nc(N2CCN(C(=O)CCCCCCCCCCNC(=O)Cn3cc(CCCCCN)nn3)CC2)nc(N2CCN(C(=O)CCCCCCCCCCNC(=O)[C@@H](CCSC)n3cc(CCO)nn3)CC2)n1
Reply: high

Task item: Form field 'band' for Cc1ccc(S(=O)(=O)Nc2ccc(O)c(Sc3ncn[nH]3)c2)cc1
Reply: low

Task item: Form field 'band' for COc1ccc(C2CC(c3ccc(Cl)cc3)=NN2c2ccc(S(N)(=O)=O)cc2)cc1 (stereo not drawn)
Reply: mid

Task item: Form field 'band' for CCCn1ncc(CN2CCC(C(=O)Nc3cccc(-c4cccc(F)c4)c3)CC2)c1C
Reply: high

Task item: Form field 'band' for COc1ccc(C(=O)NNC(=S)NC(=O)c2cc(-c3ccccc3)nc3ccccc23)cc1
Reply: low

Task item: Form field 'band' for COc1ccc(C2CC(c3ccccc3F)=NN2c2ccc(S(N)(=O)=O)cc2)cc1 (stereo not drawn)
Reply: high

Task item: Form field 'band' for CCOc1ccc(C2C(C#N)=C(N)N(c3sc4c(c3C#N)CCCC4)C3=C2C(=O)CCC3)cc1 (stereo not drawn)
Reply: low

Task item: Form field 'band' for COc1ccc(C2CC(c3ccccc3C(F)(F)F)=NN2c2ccc(S(N)(=O)=O)cc2)cc1 (stereo not drawn)
Reply: high

Task item: Form field 'band' for Cc1cccc(-n2c(SCC(=O)Nc3ccc4c(c3)OCO4)nnc2-c2ccoc2C)c1
Reply: mid

Task item: Form field 'band' for COc1ccc(C2CC(c3cccc(C(F)(F)F)c3)=NN2c2ccc(S(N)(=O)=O)cc2)cc1 (stereo not drawn)
Reply: mid

Task item: Form field 'band' for Cc1cc(N2CCN(C)CC2)nc2ccc(NC(=O)c3ccc4c(c3)OCO4)cc12
Reply: mid

Task item: Form field 'band' for CCOC(=O)c1ccc(NC(=O)C2CCN(S(=O)(=O)CC)CC2)cc1
Reply: low

Task item: Form field 'band' for O=C(Nc1ccccc1)Nc1csc2ccccc12
Reply: high

Task item: Form field 'band' for CCOC(=O)Cc1cc(=O)n(-c2nc3ccccc3s2)[nH]1
Reply: low

Task item: Form field 'band' for Cc1onc(-c2ccccc2)c1C(=O)Nc1nc2c(s1)C(=O)CC(C)(C)C2
Reply: low

Task item: Form field 'band' for CC(C)N(C(=O)[C@H]1C[C@H](CC(=O)NCCC2=CCCCC2)C(=O)N2CCc3c([nH]c4ccc(Cl)cc34)[C@]12C)C(C)C
Reply: mid

* * *

System: intestinal alkaline phosphatase [Mus musculus]
assay: mouse intestinal phosphatase enzyme activation – biochemical, luminescence, single concentration, confirmation (AID 434970)
run-parameters: purified mouse IAP, CDP-Star luminescence, 30 min, at 10 µM; measured here: IAP activation factor, stronger effect = higher value
Screen size: about 11,000 compounds; about 310 (2.8%) were called active. Many of the other results were omitted from the sample, so actives are more common in it than they were.
property-name: activation factor
Just the number, please.

Answered examples (5):
[[record]]
compound = "N/C(COc1cccc(Cl)c1)=N\\NS(=O)(=O)c1ccccc1"
observed = 0.875

[[record]]
compound = "Cc1nnc(SCCC(C)C)[nH]c1=O"
observed = 1.13

[[record]]
compound = "COc1ccccc1C(CC(=O)Nc1ccc(Cl)cc1)c1ccc(OC(C)C)cc1 (stereo not given)"
observed = 1.91

[[record]]
compound = "COC(=O)C(NC(=O)CCc1c(C)nc2ncnn2c1C)C(C)C (stereo not given)"
observed = 0.949

[[record]]
compound = "NC(=O)C1CCN(c2ncnc3c(-c4ccccc4)nsc23)CC1"
observed = 0.947


Task item: Return reported activation factor; argument: CC1(C)N=C(SCC(=O)Nc2ccccc2)C(c2ccc(Cl)cc2)=N1
Reply: 0.943

Task item: Return reported activation factor; argument: Cc1cccc(N2O[C@H]3C=CC2CCCC3)n1
Reply: 1.02

* * *

Measured activity change, negative = activation of individual entries
Tested on: intestinal alkaline phosphatase [Mus musculus]
assay: mouse intestinal phosphatase enzyme activation – biochemical, luminescence, single concentration, confirmation (AID 434970)
run-parameters: purified mouse IAP, CDP-Star luminescence, 30 min, at 10 µM; stronger effect = lower value
In all, about 11,000 compounds went through this assay and about 310 (2.8%) were called active. The full list was thinned out, with actives kept by preference.
# number only, unit % dropped from output

Answered examples (2):
[[record]]
compound = "CCN(CC)C(=O)[C@H]1CC(CC(=O)NC/C=C(\\C)CCC=C(C)C)C(=O)N2CCc3c([nH]c4ccc(OC)cc34)[C@]12C (some centres not stated)"
observed = -24.9

[[record]]
compound = "O=C(CC(Nc1ccc(F)cc1)C(=O)O)c1ccccc1 (configuration not stated)"
observed = 4.1


Task item: Return reported activity change, negative = activation; argument: NS(=O)(=O)c1ccc(N2N=C(c3ccccc3)CC2c2ccccc2)cc1 (configuration not stated)
Reply: -59.6

Task item: Return reported activity change, negative = activation; argument: CCOC(=O)c1ccc(NC(=O)C2CCN(S(=O)(=O)CC)CC2)cc1
Reply: 4.8

Task item: Return reported activity change, negative = activation; argument: COc1cccc(NC(=O)Nc2ccc3c(c2)CCC3)c1
Reply: -190

Task item: Return reported activity change, negative = activation; argument: CCCCNC(=O)C1CCN(C/C(C)=C/c2ccccc2)CC1
Reply: -1.8

Task item: Return reported activity change, negative = activation; argument: O=S(=O)(Nc1ccccc1)c1ccc(Oc2ncc(C(F)(F)F)cc2Cl)cc1
Reply: 9.65

Task item: Return reported activity change, negative = activation; argument: O=C(Nc1ccc2c(c1)CCC2)Nc1ccccc1F
Reply: -68.5

Task item: Return reported activity change, negative = activation; argument: COc1cccc(NC(=O)Nc2ccc3c(c2)N(C)C(=O)CS3)c1
Reply: 1.5

Task item: Return reported activity change, negative = activation; argument: COc1ccc(OC)c(S(=O)(=O)n2ccnc2C)c1
Reply: 0.15

Task item: Return reported activity change, negative = activation; argument: N#Cc1c2c(c(NCc3cccnc3)n3c1nc1ccccc13)CCC2
Reply: 22.1

Task item: Return reported activity change, negative = activation; argument: CCOc1ccc(NC(=O)N2CCC(C(=O)c3ccc(F)cc3)CC2)cc1
Reply: -7.1
